This section presents molecules with their documented % of Lysine depletion, Rep 3 values.
system: lysine peptide (Ac-RFAAKAA-COOH); assay: Direct Peptide Reactivity Assay, lysine peptide; settings: 20 min; 1:50
Please respond with the number in % and leave the unit unwritten.

>>> recorded_measurement("O=C1C=CC(=O)C=C1 [p-Benzoquinone, p-benzoquinone, reference compound]")
20
>>> recorded_measurement("CCCCC(CC)COc1cc(N)ccc1N (stereo not drawn)")
7.89
>>> recorded_measurement("Nc1ccc(Nc2ccc(N)cc2)cc1")
9.01

Identify measured % of Lysine depletion, Rep 3 corresponding to `CCCCCCOc1cc(Nc2ccc(N)cc2)ccc1N`
6.2

Identify measured % of Lysine depletion, Rep 3 corresponding to `CCCCCCOc1cc(N)ccc1N`
1.41

Identify measured % of Lysine depletion, Rep 3 corresponding to Nc1ccc(N)cc1 [PPD, para-phenylenediamine, reference compound]
14.6
